Below, each entry is listed with its recorded RGA Efficacy (%).
Molecular target: T1, human IL-11 (human, UniProt P20809 22-199)
T1 sequence: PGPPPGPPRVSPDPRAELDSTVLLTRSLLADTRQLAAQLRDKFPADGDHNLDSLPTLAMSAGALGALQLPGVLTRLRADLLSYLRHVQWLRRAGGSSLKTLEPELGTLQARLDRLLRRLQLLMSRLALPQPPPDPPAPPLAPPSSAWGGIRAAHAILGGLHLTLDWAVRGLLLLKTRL
Assay: cell-based or functional assay

# binder, RGA Efficacy (%)
records = [
    ("TPP-26297 (antibody, V domains shown) VH: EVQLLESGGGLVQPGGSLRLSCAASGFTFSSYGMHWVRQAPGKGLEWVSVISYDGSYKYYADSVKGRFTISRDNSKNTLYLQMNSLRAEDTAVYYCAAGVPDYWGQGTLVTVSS VL: QSVLTQPPSASGTPGQRVTISCTGSSSNIGAGYDVHWYQQLPGTAPKLLIYSNNERPSGVPDRFSGSKSGTSASLAISGLRSEDEADYYCAAWQDSLNGPVFGGGTKLTVL", "57.1%"),
    ("TPP-26311 (antibody, V domains shown) VH: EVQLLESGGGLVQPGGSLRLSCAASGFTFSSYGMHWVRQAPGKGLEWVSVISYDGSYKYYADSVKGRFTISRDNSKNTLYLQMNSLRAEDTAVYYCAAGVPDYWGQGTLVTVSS VL: QSVLTQPPSASGTPGQRVTISCTGSSSNIGAGYDHHWYQQLPGTAPKLLIYSNNERPSGVPDRFSGSKSGTSASLAISGLRSEDEADYYCAAWDDSLNGPVFGGGTKLTVL", "38.1%"),
]

Reference for the values: patent US20240317847A1
